protocol text: Stability in presence of 80% human plasma assessed as half life
Type: ADME, cell-free

compound string: COc1cc(OC)c2c(=O)c(OC(=O)Cc3ccc(-c4ccccc4)cc3)c(-c3ccc(OC)c(OC)c3)oc2c1
half-life, min: 19.8

###

protocol text: Chemical stability assessed as half life of hydrolysis at pH 7.4
Type: physicochemical
test settings: buffer

compound string: COc1cc(OC)c2c(=O)c(OC(=O)Cc3ccc(-c4ccccc4)cc3)c(-c3ccc(OC)c(OC)c3)oc2c1
half-life: > 38 h

###

protocol text: Aqueous solubility at pH. 4
Assay type: physicochemical

compound string: COc1cc(OC)c2c(=O)c(OC(=O)Cc3ccc(-c4ccccc4)cc3)c(-c3ccc(OC)c(OC)c3)oc2c1
solubility, µg/mL: 14.5
